Biological target: chimeric human RORγ-Gal4 receptor (Homo sapiens, UniProt P51449)
Sequence (P51449 269-508 limits assumed): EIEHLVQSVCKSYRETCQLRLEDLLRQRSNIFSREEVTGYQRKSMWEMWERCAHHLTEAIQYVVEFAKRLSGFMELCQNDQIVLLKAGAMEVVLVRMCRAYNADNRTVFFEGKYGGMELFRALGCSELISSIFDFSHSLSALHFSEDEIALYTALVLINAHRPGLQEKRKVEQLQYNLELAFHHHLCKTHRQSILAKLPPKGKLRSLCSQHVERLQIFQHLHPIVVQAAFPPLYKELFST
Assay: transient transactivation assay (RORγ-Gal4 luciferase reporter)
Type: cell-based
Details: Cos-7 cells transfected with RORγ-Gal4 and 5Gal4 pGL3 TK Luc reporter; overnight incubation; T0901317 at 10^-5 M as reference; read-out: IC50
Test readout: IC50

Known IC50 results, listed for orientation:
Cc1cc(C(F)(F)F)cc2c1cc(Cc1c(Cl)ccc(C(=O)N3CCC(C(=O)O)CC3)c1Cl)n2C :: < 100 nM
Cc1cc(C(F)(F)F)cc2c1nc(Cc1c(Cl)ccc(CN3CCC4(CCOC4)CC3)c1Cl)n2C :: 100 to 500 nM
Cc1ncc(C(=O)N2CCC(CC(=O)O)CC2)c(C)c1Cc1cc2c(C)cc(C(F)(F)F)cc2n1C :: 100 to 500 nM
Cc1cc(C(F)(F)F)cc2c1nc(Cc1c(Cl)ccc(CN3CCC(CCO)CC3)c1Cl)n2C :: 100 to 500 nM
Cc1cc(C(F)(F)F)cc2c1cc(Cc1c(Cl)ccc(C(=O)N3C[C@@H]4C(C(=O)O)[C@@H]4C3)c1Cl)n2C (some centres unmarked) :: < 100 nM

In: I would be grateful if you could share the reported IC50 for "Cc1cc(C(F)(F)F)cc2c1nc(Cc1c(Cl)ccc(CN3CCC(C(C)(C)O)CC3)c1Cl)n2C" .
Out: 100 to 500 nM

In: Cool, now "Cc1cn(C(=O)c2c(Cl)ccc(C(=O)N3CCC(C(=O)O)CC3)c2Cl)c2c(C)cc(OC(F)(F)F)cc12"
Out: 100 to 500 nM

In: Cool, now "Cc1cc(C#N)cc2c1cc(Cc1c(Cl)ccc(C(=O)N3CCC(OCC(=O)O)CC3)c1Cl)n2C"
Out: 1000 to 10000 nM
